Test system: HOP-62 NSCLC
Assay Summary: NCI-60 one-dose screen, 48 h (100 = growth as untreated, 0 = no growth, -100 = all killed)
Measurement Parameters: 10 µM unless noted
Compounds without any hit were thinned out: in the full panel of roughly 83,000, 20% have a hit.

Molecule	growth / %
CC1(C)CC(O)CCCCCCOc2c(CN)cccc2NC(=O)c2nc(cnc2N)-c2ccc(cc2)S1(=O)=O (stereo not drawn)	44.7
N#Cc1c(-c2cccc([N+](=O)[O-])c2)nc(SCC(=O)c2ccc(Cl)cc2)[nH]c1=O	87.4
COc1ccc(C(=O)NNc2nc(Cl)nc(N3CCN(C(c4ccccc4)c4ccccc4)CC3)n2)cc1	86.5
COc1cccc(C(=O)NNc2nc(Cl)nc(N3CCN(C(c4ccccc4)c4ccccc4)CC3)n2)c1	92.8
CCCCCN1C=C/C(=C\C(=O)N2CCCc3ccccc32)c2ccccc21	107
O=C(Nc1cccc(C(=O)N2CCc3ccc(Cl)cc32)c1)c1ccco1	42.4
CC(C)c1ccc(Nc2ccc3c(OCCCN4CCN(C)CC4)cccc3n2)cc1	64.1
COc1cc2c(c(OC)c1OC)-c1ccc(NNC(=S)N(Cc3cccc(C[N+](Cc4cccc(CNC56CC7CC(CC(C7)C5)C6)c4)(Cc4cccc(CNC56CC7CC(CC(C7)C5)C6)c4)Cc4cccc(CN(C(=S)NNc5ccc6c(cc5=O)[C@@H](NC(C)=O)CCc5cc(OC)c(OC)c(OC)c5-6)C56CC7CC(CC(C7)C5)C6)c4)c3)C34CC5CC(CC(C5)C3)C4)c(=O)cc1[C@@H](NC(C)=O)CC2 (stereo partly drawn)	48.6
O=c1ccc(-c2nc(N3CCOCC3)c3ccccc3n2)c[nH]1	99.6
CN(C)c1ccc(Nc2c3ccccc3nc3cc(NC(=O)CCN4CCCC4)ccc23)cc1	-8.55
CC(=O)c1cc2c(N)c(C(=O)Nc3cccc4ccncc34)sc2nc1C	91.8
N#C/C(=C\c1ccccn1)c1nc2cc(Cl)ccc2s1	63.5
CCOc1cccc(-c2nc(N)nc(Nc3ccccc3SSc3ccccc3Nc3nc(N)nc(-c4cccc(OCC)c4)n3)n2)c1	-0.309
COc1ccccc1NC(=O)C1CC(c2ccc(F)cc2)=NO1 (stereo not drawn)	97.5
O=C(/C=C/c1c(-c2ccc(Cl)cc2)nn(-c2ccccc2)c1C(F)(F)F)c1ccc(Cl)cc1	90.9
O=C(/C=C/c1ccc(F)cc1)c1ccc(NC(=O)N2CCN(c3cc4c(cc3F)c(=O)c(C(=O)O)cn4C3CC3)CC2)cc1	98
O=S(=O)(NCCCNc1nccc(-c2c(-c3cccc(F)c3)nc3sccn23)n1)c1cccc2ccccc12	80.7
CN(C)c1ccc(C2C(C#N)=C(/N=C/c3ccccc3)Oc3c2ccc2ccccc32)cc1 (stereo not drawn)	51.2
Oc1c(Cl)cc(Cl)c(Cl)c1CNCCNCc1c(O)c(Cl)cc(Cl)c1Cl	25
CCC(CC)NCC(C)(C)O	119
COc1ccc(C(=O)c2cc(C)c(OC)c(C)c2)c(OC)c1OC(=O)C(Cl)Cl	17.4
CCCCCCCCCCCCCCCC[N+]1(C)CCN(SN2CC[N+](C)(CCCCCCCCCCCCCCCC)CC2)CC1	56.6
Cn1c(-c2c(N)n(CCCN3CCOCC3)c3nc(C#N)c(C#N)nc23)nc2ccccc21	76.4
N#CC1C(C#N)C(C(=O)c2ccc(Br)cc2)N2c3ccccc3C=CC12 (stereo not drawn)	75.1
CCN(CC)CCCC(C)Nc1cc(O)cc2cccnc12 (stereo not drawn)	104
C=C1C(=O)O[C@H]2[C@H]1CC/C(CNC(=O)C(C)c1ccc(CC(C)C)cc1)=C\CC[C@@]1(C)O[C@@H]21 (stereo partly drawn)	60
COc1cc2nc(-c3ccc(C(F)(F)F)cc3)cc(OCCCN3CCCC3)c2cc1OC	63.6
Cc1cc2nc3c4cccc(O)c4n(CCN(C)C)c3nc2cc1C	31.7
Oc1ccc(OCCOc2ccc(O)cc2)cc1	87.6
C[C@@H](Nc1ncnc2ccc(-c3cnc(N)nc3)cc12)c1ccc(F)cc1	57.7
O=C1c2ccccc2CCC12OC2c1cn(-c2ccccc2)nc1-c1ccc(Cl)cc1 (stereo not drawn)	108
COc1cc(C2=C(c3cn(C)c4ccccc34)COC2=O)cc(OC)c1OC	31.7
O=S(=O)(NCCNc1nccc(-c2c(-c3cccc(F)c3)nc3sccn23)n1)c1ccc(Br)cc1	83.3
COc1cc(CC(=O)c2ccc(O)c(OC)c2)ccc1O	91.4
Cn1nc(CC#N)c2c(=N)n(N)cnc21	101
COc1cccc2c1c1nc3cc(C)c(C)cc3nc1n2CCN(C)C	24.9
CN(C)CCn1c2ccc(Br)cc2c2nc3ccccc3nc21	25.1
O=C(c1ccccc1)N1N=C(c2ccc(-n3ccc(C(F)(F)F)n3)c(F)c2)CC1c1ccc[nH]1 (stereo not drawn)	122

Data credit: PubChem BioAssay (NCI)
